# System: Escherichia coli TOP10;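 also: peptides expressed intracellularly from a pBAD plasmid library in pooled LB shake-flask culture, induced with 0.3% L-arabinose, DNA abundance read by NGS, three biological replicates, DESeq2 with apeglm shrinkage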
# protocolDetails: shrunken log2 fold change of peptide-encoding DNA abundance (4.5 h post-induction vs induction); higher = less antimicrobial activity (less host growth inhibition)
# conditionInfo: time post-induction: 4.5 h; library: site-saturation at positions 5, 18, 19, 20
Listed below: shrunken log2 fold change values for each entry.
Keep it simple and answer with nothing but the number.

A selection of reference data follows.
RRIRPRPPRLPRPRPRPKMYPRP -0.938
RRIRIRPPRLPRPRPRPKFFPRP -0.116
RRIRDRPPRLPRPRPRPMKIPRP -0.0804
RRIRKRPPRLPRPRPRPTAAPRP 0.757
RRIRRRPPRLPRPRPRPGMYPRP -0.0527

Quick check: shrunken log2 fold change of "RRIRWRPPRLPRPRPRPRSWPRP" ?
1.07

Quick check: shrunken log2 fold change of "RRIRPRPPRLPRPRPRPNILPRP" ?
-0.305

Quick check: shrunken log2 fold change of "RRIRERPPRLPRPRPRPHDCPRP" ?
-0.715
